The measurements presented in this section are drawn from PubChem BioAssay (NCI).

Tested on: LOX IMVI melanoma
Experiment: NCI-60 one-dose screen, 48 h (100 = growth as untreated, 0 = no growth, -100 = all killed)
Details: 10 µM unless noted
This is part of a sample that, as a whole, favours compounds with a hit. Of some 83,000 tested, about 20% had one in any assay.
Lab note - cut at 40% for growth: true (1) if strictly below, false (0) if not.

Worked examples, 6 compounds total:
| cpd_smiles | assigned_class |
| --- | --- |
| Oc1ccc2cc(Br)ccc2c1-c1c(O)ccc2cc(Br)ccc12 | false (0) |
| CC(C)(C)n1cc(-c2ccnc(NCCCNS(=O)(=O)c3ccc(C(F)(F)F)cc3)c2)c(-c2cccc(O)c2)n1 | true (1) |
| CN(C[C@H]1Cc2c(cccc2N2CCN(c3ncccn3)CC2)CN1)[C@H]1CCCc2cccnc21 | true (1) |
| O=C(NS(=O)(=O)c1ccccc1)n1cc(-c2ccncc2)c(-c2ccc(Cl)c(O)c2)n1 | false (0) |
| CNc1ccc(Br)c2c1C(=O)c1ccccc1C2=O | false (0) |
| CCN1CCN(c2nc(NNC(=O)c3ccccc3)nc(N3CCN(C(c4ccccc4)c4ccccc4)CC3)n2)CC1 | true (1) |

Q: Could you please tell me whether growth recorded for CC(C)(C)n1cc(-c2ccnc(NCCCNS(=O)(=O)c3ccc(F)cc3)c2)c(-c2cccc(O)c2)n1 is less than 40%?
Result: true (1)

Q: Could you please tell me whether growth recorded for COc1ccc(C(=O)c2cc(OC)c(OC)c(OC)c2OC)cc1O is less than 40%?
Result: true (1)

Q: Could you please tell me whether growth recorded for Cn1c(=O)cc(NC(=O)CN2CCN(c3cc4c(cc3F)c(=O)c(C(=O)O)cn4C3CC3)CC2)[nH]c1=O is less than 40%?
Result: false (0)

* * *

System: ACHN renal
Experiment: NCI-60 one-dose screen, 48 h (100 = growth as untreated, 0 = no growth, -100 = all killed)
Conditions: 10 µM unless noted
The panel holds about 83,000 compounds, 20% with a hit somewhere; the sample as a whole holds those more often.
t means recorded growth is 90% or above; f means it is below 90%.

Worked examples, 4 compounds total:
| compound | measured_target | assigned_class |
| --- | --- | --- |
| Cc1c(C(=O)/C=C/c2csc3ccccc23)[n+](=O)c2ccccc2n1[O-] | ACHN renal | f |
| O=C1c2c(c3c4ccccc4n(CCCCCCBr)c3c3[nH]c4ccccc4c23)C(=O)N1O | ACHN renal | f |
| CC(=O)Nc1scc[n+]1Cc1ccccc1 | ACHN renal | t |
| O=[N+]([O-])c1cc(S(=O)(=O)Oc2ccccc2)ccc1Cl | ACHN renal | f |

Q: Threshold query (growth >= 90%) on COc1ccc(C2C=C(c3ccc(N)cc3)N=C3SC=CN32)cc1OC (stereo unspecified)
Result: t

Q: Threshold query (growth >= 90%) on COc1ccc(N=Cc2c(O)ccc3c2oc2cc(Cl)c(O)c(Cl)c23)cc1
Result: t

Q: Threshold query (growth >= 90%) on CC12CCC3C4(C)COC(c5ccccc5Cl)OC4CCC3(C)C1CC(C1=CCOC1=O)O2 (stereo unspecified)
Result: f

Q: Threshold query (growth >= 90%) on Cc1ccc(Nc2nnc(-c3ccc(Cl)cc3)o2)c(C)c1
Result: t

Q: Threshold query (growth >= 90%) on COc1ccncc1S(=O)(=O)NC(=O)Nc1ccc(Cl)c(Cl)c1
Result: f

Q: Threshold query (growth >= 90%) on COc1ccc(OC)c(C2OC(c3ccc4ccccc4c3O)=NN2C(C)=O)c1 (stereo unspecified)
Result: f
